Origin of the recorded values: patent US20250313612A1

target: RSV F protein of recombinant mKate-RSV, subtype B (18537) (Respiratory syncytial virus subtype B …, UniProt P13843 26-574); test: cell-based or functional assay
endpoint: Neut IC50 subtype B (µg/mL)
Answers are plain numbers, in µg/mL.

{"binder": "ADI-14439 (antibody, V domains shown, full-length IgG (yeast-expressed); also called Antibody Number 2; Ab# 2) VH: QVQLVQSGAEVKKPGSSVRVSCRASGVTLTTVAVNWVRQVPGQGPEWIGGILVGLGKVRLAQKFENRATLRADTSSNTAYMELSGLRFEDTAVYYCAIIDPQDCTAASCFWVNWLDPWGQGTLVTVSS VL: EIVLTQSPGTLTLSPGETATLSCRASQSVLSGYLAWYQQKPGQAPRLLIYAASTRATDIPARFTGSGSATDFTLTISRLEPQDFAVYYCQQYGSAPITFGQGTRLEIK", "result-number": 4.12}
{"binder": "ADI-14467 (antibody, V domains shown) VH: EVQLLESGSEVKKPGTSVKVSCETSGYIFTNYAISWVRQAPGQGLEWLGWISGYNGQTYYAQKVQGRLTLTTDTSTMTAYMDLTSLRSDDTAIYYCVRDVPVISGASTMDYWGQGTLVTVSS VL: DIVMTQSPLSLPVTHGQPASISCRSSQSLVYSDGNTYLSWFQLRPGQSPRRLIYKVSNRDSGVPDRFSGSGSGTDFTLKISRVEAEDVGVYYCMQATQWPRTFGQGTKVEIK", "result-number": 0.065}
{"binder": "ADI-14470 (antibody, V domains shown, full-length IgG (yeast-expressed); also called Antibody Number 33; Ab# 33) VH: QVTLKESGPALVKPTETLTLTCTFSGFSLSTKRLSVSWIRQPPGKALEWLARIDWDDDKSYSTSLRTRLTIAKDTSKNQVVLTMTNMGPADTATYFCVRSSVYASNAYYLYYFDSWGQGTLVTVSS VL: DIRMTQSPSSLSASVGDRVTITCRASQSIATYLNWYQHKPGKAPTLLIYAASILHSGVPPRFSGRASGTDFTLTISSLQPEDFATYYCQQAYSSPYTFGQGTKVDIK", "result-number": 0.473}

Batch: Neut IC50 subtype B for all items listed.
1. ADI-14476 (antibody, V domains shown, full-length IgG (yeast-expressed); also called Antibody Number 38; Ab# 38) VH: QVQLVESGPTLVKPTQTLSLTCTFSGFSLTTRGVGVGWIRQPPGKALEWLGFTYWDGDDRYSPSLRNRVSIAKDTSKNQVVLTLTNMDPVDTATYFCVHSDRYDRGGYYLYFFDYWGPGTLVTVSS VL: DIRVTQSPSSLSASVGDRVSISCRASQTIASYVNWYQQRPGKAPQLLIFAASHLQTGVPSRFSGRGSGTDFTLTITSLQPEDFATYYCQQSYTSPYTFGQGTKVEIK
2. ADI-14466 (antibody, V domains shown, full-length IgG (yeast-expressed); also called Antibody Number 29; Ab# 29) VH: QVQLVQSGAEAKKPGEPLRISCKGSGYTFSSYWISWVRQRPGERLEWMGRIDPSDSYAYSSPSFQGHVTFSADKSSNTAFLQWSSLQASDTAIYYCARHKENYDFWDFWGQGTMVTVSS VL: ETTLTQSPDSLAVSLGERATINCRSSQPILFNPINKLSLAWYQLKPGQPPKLLISWASTREPGVPDRFNGSGSGTVFTLTISSLQPEDVAVYVCQQYFTSTFFGPGTKVEIK
3. ADI-14449 (antibody, V domains shown, full-length IgG (yeast-expressed); also called Antibody Number 12; Ab# 12) VH: EVQLVESGGDLVKPGGSLRLSCEGSGFIFPNAWMSWVRQAPGKGLEWVGRIKSNTDGGTTDYGAPVKGRFTISRDDSTNTMYLHMNSLKTEDTAVYFCSTGPPYKYFDETGYSVVDYWGQGTLVTVSS VL: SYELTQPPSASGTPGQRVIISCSGSTSNSGYNYFYWYQQRPGTAPKLLIYGSDQRPSGVPDRFSGSQSGPSASLAISGLRSEDEAHYYCAAWDDNLSGPVFGGGTKLTVL
4. ADI-14492 (antibody, V domains shown, full-length IgG (yeast-expressed); also called Antibody Number 53; Ab# 53) VH: EVQLVESGGGLVRPGGSLGLSCSASGFIFSNAWMTWVRQAPGKGLEWVGHIKSKVNGGTTAYGAPVKGRFTISRDDSRNTLFLQMNSLKTEDTGVYYCTTGPPYQYFDDSGYSVVDYWGQGTLVTVSS VL: QSVVTQPPSASGTPGQRVTISCSGSDSNIGTDYFYWYQQLPGSAPKLLIYGSNQRPSGVPDRFSGSQSGSAASLAISGLRSEDDADYYCAAWDDSLGGPVFGGGTKVTVL
5. ADI-14516 (antibody, V domains shown) VH: QVQLVQSGVEVKKPGASVKVSCKTSGYTFSNYGVTWVRQAPGQGLEYMGWISAYNGNTNYAQNVQGRLTMTTDTSTSTGYMELRRLTSDDTAVYFCARDKGVTVAGSLLDYWGQGTLVTVSS VL: EIVMTQSPLSLPVTLGQPASISCRSSQSLEHSDGNTYLNWFQQRPGQSPRRLIYKVSNRDSGVPDRFSGSGSGTDFTLKINRVEAEDVGVYYCMESTHWPPYTFGQGTKVEIK

Out:
2.19
0.263
0.182
0.681
0.047

In: // query Neut IC50 subtype B value for entry ADI-14480 (antibody, V domains shown) VH: QVQLVQSGAEVKKPGSSMSISCRASGGSFNNQAIHWIRQAPGEGLEWMGNIIPNFGSQNYAPEFVGRVSFNADASAGTAYMDLSDLTSQDTAVYYCATAGWFGELVRFDSWGQGTLVTVSS VL: DIVMTQSPATLSVSPGGRATLSCRASETITTNLAWYQQKPGQAPRLLIYGASTRATGIPARFSGSGSGTEFTLTINSLQSEDFAVYYCQQYNNWPPLTFGGGTKLEIK
Out: 2.76
